# System: UO-31
# assayRemarks: NCI tumour cell line growth inhibition, 48 h
Calls of active or inactive are those of the source. No stated cut-off is given here; in the data, active = GI50 up to about 1.1 µM and inactive = higher.
Return exactly one item of yes for active, no for inactive

Task: Hi team, can someone confirm the assay call for "O=C(O)c1cc(-c2ccc3c(O)c(O)ccc3c2)ccc1O" ?
Result: no

---

# Tested on: MDA-N
# assayRemarks: NCI tumour cell line growth inhibition, 48 h
Activity calls are given as the source filed them. Rule as the data show it: active = GI50 up to about 1.1 µM and inactive = higher.
Return exactly one item of active, inactive

Observe how each entry below is paired with its result.
[[record]]
compound = "COP(C)(=O)C1=CCN(C(=O)OCC[Si](C)(C)C)CC1 (stereo not drawn)"
labelvalue = "inactive"

[[record]]
compound = "COc1ccc(/C=C/C(=O)CCN2CCN(CCC(=O)/C=C/c3ccc(OC)cc3)CC2)cc1"
labelvalue = "inactive"

[[record]]
compound = "Fc1cc(C2=C[C@H](c3ccc4c(c3)OCO4)NC(=S)N2)c(Cl)cc1Cl"
labelvalue = "inactive"

[[record]]
compound = "COc1ccc(C[C@H]2NC[C@H](O)[C@H]2OC(C)=O)cc1"
labelvalue = "active"

[[record]]
compound = "O=C(O)c1ccccc1/C=C1\\Cc2ccccc2C1=O"
labelvalue = "inactive"

[[record]]
compound = "C[n+]1c(-c2ccc(/C=N\\NC(=O)c3ccc(C(=O)N/N=C/c4ccc(-c5cn6ccsc6[n+]5C)cc4)cc3)cc2)cn2ccsc21"
labelvalue = "inactive"

[[record]]
compound = "O=C(O)Cc1cc(Cl)ccc1O"
labelvalue = "inactive"

[[record]]
compound = "O=C(CCC1CCCCC1)NCc1ccc(C(=O)O)cc1"
labelvalue = "inactive"


Task: Hi team, can someone confirm the assay call for COc1ccc(C2CC(c3c(O)ccc4ccccc34)=NN2)cc1OC (stereo not drawn) ?
Result: inactive

Task: Hi team, can someone confirm the assay call for "CC(C)C[C@@H](NC(=O)[C@@H](Cc1cccc2ccccc12)NC(=O)N1CCOCC1)B(O)O" ?
Result: inactive

Task: Hi team, can someone confirm the assay call for Cc1ccc(S(=O)(=O)n2c3c(c4ccccc42)CCN2C(=O)C(S(=O)(=O)c4ccccc4)=CCC32)cc1 (stereo not drawn) ?
Result: active

Task: Hi team, can someone confirm the assay call for "Cc1c2c(n3c(nc4ccccc43)c1C#N)N(c1ccc(Cl)cc1)CC2" ?
Result: inactive

Task: Hi team, can someone confirm the assay call for "CN(Cc1cc(Br)cc(Br)c1O)Cc1c(O)ccc2ccccc12" ?
Result: inactive

Task: Hi team, can someone confirm the assay call for "CCCCC(=O)c1c(O)nc2sccn2c1=O" ?
Result: inactive

---

# System: SR
# assayRemarks: NCI tumour cell line growth inhibition, 48 h
Activity calls are given as the source filed them. No stated cut-off is given here; in the data, active = GI50 up to about 1.1 µM and inactive = higher.
Return exactly one item of 1 = active, 0 = inactive

Observe how each entry below is paired with its result.
[[record]]
molecule = "CNCC(=O)Nc1ccc2c(c1)C(=O)c1ccc(NC(=O)CNC)cc1C2=O"
labelvalue = 0

[[record]]
molecule = "O=C(O)c1ccccc1/C=C1\\Cc2ccccc2C1=O"
labelvalue = 0

[[record]]
molecule = "Cc1cccc(C(C)C)c1NC(=O)CC1Sc2ccccc2NC1=O (stereo unspecified)"
labelvalue = 0

[[record]]
molecule = "CN(C)CCCNc1cc(O)c2c(c1O)C(=O)c1ccccc1C2=O"
labelvalue = 0

[[record]]
molecule = "CCOC(=O)C12OC(CCC1=O)C(C(=O)OC)=C2C(=O)OC (stereo unspecified)"
labelvalue = 0

[[record]]
molecule = "COC(=O)C(C(=O)C(=O)Nc1c(C)cccc1C)c1cnc2ccccc2n1 (stereo unspecified)"
labelvalue = 0


Task: Hi team, can someone confirm the assay call for O=c1[nH]c(=O)n(C2COC(CO)C2O)cc1F (stereo unspecified) ?
Result: 0

Task: Hi team, can someone confirm the assay call for "Nc1ccc(OCCCc2c(-c3ccccc3)[nH]c(N)nc2=O)cc1" ?
Result: 0

Task: Hi team, can someone confirm the assay call for "O[C@@]12Cc3c([nH]c4ccccc34)[C@@H]3Oc4c(-c5ccccc5)ccc5c4[C@@]31CCN(CC1CC1)[C@@H]2C5" ?
Result: 0

Task: Hi team, can someone confirm the assay call for "CCOC(=O)/C(=C/c1cc(OC)ccc1OC)CC(=O)O" ?
Result: 0

Task: Hi team, can someone confirm the assay call for [O-][S+](C(c1ccccc1)=P(c1ccccc1)(c1ccccc1)c1ccccc1)c1ccc(Cl)cc1 (stereo unspecified) ?
Result: 0

Task: Hi team, can someone confirm the assay call for CCCCCCCCCCCC(=O)OCC1OC(n2cc(F)c(=O)[nH]c2=O)C(NC(=O)OCc2ccccc2)C(OC(=O)CCCCCCCCCCC)C1O (stereo unspecified) ?
Result: 0

Task: Hi team, can someone confirm the assay call for CCCCCCCCC/C=C1/CC(CO)(COC(=O)C2CCCCC2)OC1=O (stereo unspecified) ?
Result: 0
